Entries and their measured Relative SLC25A15 level vs Untreated (±Standard Deviation) follow.
- System: SLC25A15
- Protocol Notes: RNA-seq of compound-treated primary human hepatocytes, SLC25A15 expression
- Format: cell-based
- Measurement Context: 10 μM, primary human hepatocytes, triplicate (Table 24, FIG. 16A-B)
Provide a numeric answer; units are not to be included.

Examples with answers:
Cl.Cn1c(=O)c(Oc2ccc(F)cc2F)cc2cnc(NC3CCOCC3)nc21 [R1487 Hydrochloride]	1.51
CC(=O)NCC(=O)N1[C@@H]2CC[C@H]1c1ccc(Nc3ncc(C(F)(F)F)c(NC4CCC4)n3)cc12	2.41

get_value(item= CCN(CC)CCNC(=O)c1c(C)[nH]c(/C=C2\C(=O)Nc3ccc(F)cc32)c1C , readout=Relative SLC25A15 level vs Untreated (±Standard Deviation)) returns 2.43
